Field: GI50. Provide a value for each of the molecules that follow.
Test system: SF-295
TEST DESCRIPTION: NCI tumour cell line growth inhibition, 48 h
Calls of active or inactive are those of the source. No stated cut-off is given here; in the data, active = GI50 up to about 1.1 µM and inactive = higher.

Please report the recorded GI50 for COC(=O)c1c(O)ccc2c1c1c(n2Cc2ccccc2)C(=O)c2ccccc2C1 .
27.1 µM (inactive)

Please report the recorded GI50 for Oc1ccc2ccccc2c1/N=N/c1ccc(Br)cc1 .
28.9 µM (inactive)

Please report the recorded GI50 for COC(=O)/C(C#N)=C(\Nc1ccccc1)N1CCOCC1 .
> 100 µM (inactive)

====

System: UACC-62
TEST DESCRIPTION: NCI tumour cell line growth inhibition, 48 h
Calls of active or inactive are those of the source. No stated cut-off is given here; in the data, active = GI50 up to about 1.1 µM and inactive = higher.
Field: GI50. Provide a value for each of the molecules that follow.

Please report the recorded GI50 for Cc1c(-c2nnc(-c3ccccc3)o2)c(=O)n(-c2ccccc2)n1C .
> 100 µM (inactive)

Please report the recorded GI50 for COc1ccc(-c2c(C#N)c(S)n(NS(=O)(=O)c3ccc(C)cc3)c(=O)c2C#N)cc1 .
15.6 µM (inactive)

Please report the recorded GI50 for COc1ccc(Cc2nc3ccccc3s2)cc1OC .
17.3 µM (inactive)

Please report the recorded GI50 for CCCCc1ccc(Nc2nc(Cl)c3ccn(C4CC(Oc5ccc(C)cc5)C(COc5ccc(C)cc5)O4)c3n2)cc1 (stereo not given) .
24.5 µM (inactive)

Please report the recorded GI50 for CC(=O)OCC1OC(n2c3c(c(-c4ccc(C)cc4)c(C#N)c2=S)C(=O)CC(C)(C)C3)C(OC(C)=O)C(OC(C)=O)C1OC(C)=O (stereo not given) .
18.9 µM (inactive)
